experimental_target: Mu-type opioid receptor (Rattus norvegicus)
Sequence (P33535 whole entry): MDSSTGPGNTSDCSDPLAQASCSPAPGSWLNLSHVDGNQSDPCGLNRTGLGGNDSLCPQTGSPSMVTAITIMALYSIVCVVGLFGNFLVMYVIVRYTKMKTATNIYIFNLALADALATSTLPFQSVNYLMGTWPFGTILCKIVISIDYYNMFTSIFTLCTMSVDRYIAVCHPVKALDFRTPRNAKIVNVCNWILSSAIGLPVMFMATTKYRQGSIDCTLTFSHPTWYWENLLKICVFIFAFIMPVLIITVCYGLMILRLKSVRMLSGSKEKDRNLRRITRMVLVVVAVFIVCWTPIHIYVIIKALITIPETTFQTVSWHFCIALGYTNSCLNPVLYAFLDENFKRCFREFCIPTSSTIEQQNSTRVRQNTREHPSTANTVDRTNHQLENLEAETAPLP
assay_remarks: Compound was tested for its binding affinity against opioid receptor mu using [3H]DAGO as radioligand.
Listing of recorded Ki by entry.
measure: Ki

chemical_string	experimental_target	meas_value
CSCC[C@H](NC(=O)[C@H](CC(C)C)NC(=O)[C@H](Cc1c[nH]cn1)NC(=O)[C@@H](Cc1ccccc1)NC(=O)[C@@H](CCSC)NC(=O)[C@@H](N)Cc1ccc(O)cc1)C(=O)N[C@@H](CC(=O)O)C(N)=O	Mu-type opioid receptor (Rattus norvegicus)	2350 nM
CSCC[C@H](NC(=O)[C@H](CC(C)C)NC(=O)[C@H](Cc1cnc[nH]1)NC(=O)[C@H](Cc1ccccc1)NC(=O)[C@@H](CCSC)NC(=O)[C@@H](N)Cc1ccc(O)cc1)C(=O)N[C@@H](CC(=O)O)C(N)=O	Mu-type opioid receptor (Rattus norvegicus)	344 nM
CSCC[C@H](NC(=O)[C@H](CC(C)C)NC(=O)[C@H](Cc1c[nH]cn1)NC(=O)[C@H](Cc1ccccc1)NC(=O)[C@@H](C)NC(=O)[C@@H](N)Cc1ccc(O)cc1)C(=O)N[C@@H](CC(=O)O)C(N)=O	Mu-type opioid receptor (Rattus norvegicus)	43.7 nM
CSCC[C@H](NC(=O)[C@H](CC(C)C)NC(=O)[C@H](Cc1cnc[nH]1)NC(=O)[C@H](Cc1ccccc1)NC(=O)[C@@H](CCSC)NC(=O)[C@H](N)Cc1ccc(O)cc1)C(=O)N[C@@H](CC(=O)O)C(N)=O	Mu-type opioid receptor (Rattus norvegicus)	7410 nM
CSCC[C@H](NC(=O)[C@H](CC(C)C)NC(=O)[C@@H](Cc1cnc[nH]1)NC(=O)[C@H](Cc1ccccc1)NC(=O)[C@@H](CCSC)NC(=O)[C@@H](N)Cc1ccc(O)cc1)C(=O)N[C@@H](CC(=O)O)C(N)=O	Mu-type opioid receptor (Rattus norvegicus)	492 nM

###

assay_remarks: Opioid receptor delta selectivity was defined as the ratio between Ki(opioid receptor mu)/Ki(opioid receptor delta)
Assay type: protein assay
Square brackets hold non-standard residues; d marks the D form. Peptide text beside a SMILES is read from it. Nle = CCCC[C@H](N)C(=O)O
measure: Selectivity

compound	meas_value
CSCC[C@H](NC(=O)[C@H](CC(C)C)NC(=O)[C@H](Cc1c[nH]cn1)NC(=O)[C@H](Cc1ccccc1)NC(=O)[C@@H](C)NC(=O)[C@@H](N)Cc1ccc(O)cc1)C(=O)N[C@@H](CC(=O)O)C(N)=O	121
CSCC[C@H](NC(=O)[C@H](CC(C)C)NC(=O)[C@H](Cc1c[nH]cn1)NC(=O)[C@H](Cc1ccccc1)NC(=O)[C@@H](CCSC)NC(=O)[C@H](N)Cc1ccc(O)cc1)C(=O)N[C@@H](CC(=O)O)C(N)=O	14
CSCC[C@H](NC(=O)[C@H](CC(C)C)NC(=O)[C@H](Cc1c[nH]cn1)NC(=O)[C@H](Cc1ccccc1)NC(=O)[C@@H](CCSC)NC(=O)[C@@H](N)Cc1ccc(O)cc1)C(=O)N[C@@H](CC(=O)O)C(N)=O	764
CSCC[C@H](NC(=O)[C@H](CC(C)C)NC(=O)[C@@H](Cc1c[nH]cn1)NC(=O)[C@H](Cc1ccccc1)NC(=O)[C@@H](CCSC)NC(=O)[C@@H](N)Cc1ccc(O)cc1)C(=O)N[C@@H](CC(=O)O)C(N)=O	178
CCCC[C@H](NC(=O)[C@@H](N)Cc1ccc(O)cc1)C(=O)N[C@@H](Cc1ccccc1)C(=O)N[C@@H](Cc1c[nH]cn1)C(=O)N[C@@H](CC(C)C)C(=O)N[C@@H](CCSC)C(=O)N[C@@H](CC(=O)O)C(N)=O (H-Y[Nle]FHLMD-NH2)	272
CSCC[C@H](NC(=O)[C@H](CC(C)C)NC(=O)[C@H](Cc1c[nH]cn1)NC(=O)[C@@H](Cc1ccccc1)NC(=O)[C@@H](CCSC)NC(=O)[C@@H](N)Cc1ccc(O)cc1)C(=O)N[C@@H](CC(=O)O)C(N)=O	59
